# IC50 GM-CSF, TF-1 proliferation per record follows
- TESTED_ON: T1, human CD131 (human, UniProt P32927 17-897)
- T1 sequence: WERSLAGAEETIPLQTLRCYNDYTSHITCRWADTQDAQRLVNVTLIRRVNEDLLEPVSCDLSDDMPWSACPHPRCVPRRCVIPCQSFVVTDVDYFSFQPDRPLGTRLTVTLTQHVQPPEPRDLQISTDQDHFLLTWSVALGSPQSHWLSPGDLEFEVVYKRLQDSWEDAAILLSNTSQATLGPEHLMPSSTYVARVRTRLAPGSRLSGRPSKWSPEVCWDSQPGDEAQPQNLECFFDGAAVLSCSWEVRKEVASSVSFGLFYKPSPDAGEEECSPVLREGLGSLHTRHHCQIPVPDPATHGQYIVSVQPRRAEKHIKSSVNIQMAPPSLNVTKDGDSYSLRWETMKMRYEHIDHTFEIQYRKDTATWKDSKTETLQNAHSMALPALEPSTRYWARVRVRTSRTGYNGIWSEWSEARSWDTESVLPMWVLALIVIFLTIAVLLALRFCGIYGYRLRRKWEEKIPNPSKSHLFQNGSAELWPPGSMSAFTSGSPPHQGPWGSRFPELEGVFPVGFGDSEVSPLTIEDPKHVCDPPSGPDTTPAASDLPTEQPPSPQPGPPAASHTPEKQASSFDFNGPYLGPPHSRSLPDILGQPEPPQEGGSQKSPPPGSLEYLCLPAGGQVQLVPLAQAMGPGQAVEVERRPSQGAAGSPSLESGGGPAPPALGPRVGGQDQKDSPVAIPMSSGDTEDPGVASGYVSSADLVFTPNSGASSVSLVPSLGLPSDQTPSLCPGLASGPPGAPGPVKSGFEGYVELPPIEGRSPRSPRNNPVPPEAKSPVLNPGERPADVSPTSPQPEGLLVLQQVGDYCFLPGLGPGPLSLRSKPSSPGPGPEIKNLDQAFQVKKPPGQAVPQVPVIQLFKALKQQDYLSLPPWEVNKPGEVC
- EXPERIMENT_NOTES: cell-based or functional assay

BINDER | IC50 GM-CSF, TF-1 proliferation
9A2-VR39.27 (antibody, V domains shown) VH: EVQLLESGGGLVQPGGSLRLSCAASRTSFMWYHMLWVRQAPGKGLEWVSSINGRGRVTYYADSVKGRFTISRDNSKNTLYLQMNSLRAEDTAVYYCARFYDSFFDIWGQGTMVTVSS VL: DIQMTQSPSSVSASVGDRVTITCRASQGISSWLAWYQQKPGKAPKLLIYAASSLQSGVPSRFSGSGSGTDFTLTISSLQPEDFATYYCQQANSFPITFGQGTRLEIKR | 17.9 nM
9A2-VR24.107 (antibody, V domains shown) VH: EVQLLESGGGLVQPGGSLRLSCAASGFTFPWYRVHWVRQAPGKGLEWVSSIRSSGGFPYYNPFVKGRFTISRDNSKNTLYLQMNSLRAEDTAVYYCARFYDSFFDIWGQGTMVTVSS VL: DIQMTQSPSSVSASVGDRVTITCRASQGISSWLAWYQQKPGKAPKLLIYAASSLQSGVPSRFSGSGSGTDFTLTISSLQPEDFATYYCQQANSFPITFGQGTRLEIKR | 0.3 nM
